All values here come from patent US20250382355A1.

targetOrSystem: SARS-CoV-2 prefusion-stabilized spike protein (SARS-CoV-2-PreS) (SARS-CoV-2, UniProt P0DTC2 14-1208)
experimentalDetails: ELISA
pEC50: −log10 of the molar value.
Listed here: items and their measured pEC50.
measurementKind: pEC50

8E9 VHH-Fc (Fc fusion) QVQLVESGGGLVEAGGSLRLSCVASGSSSSINAMGWYRQAPGKQRELVASISHDGETKYANSVKGRFTISRGNAKNTIYLQMNSLKPEDTAVYYCVGDVAWVVVAGEYDYWGQGTQVTVSS ... 10.10
5A6 VHH-Fc (Fc fusion) QVQLVESGGGLAQAGGSLRLSCATSGLTFSMSAMGWFRQAPGNEREFVGVINWNGGSSRYADSVRGRFTISRDNAKNTVYLQMNSLKPEDTGVYYCAADALNIGTGEVNPRLYDYWGQGTQVMVSS ... 9.85
15H7 VHH-Fc (Fc fusion) QVQLVESGGRLVQAGGSLRLSCAAPGRTFRNLTLGWFRQAPGKEREFVASTSWPDDEMTYYTDSVKGRFTISRDNAKNTVYLQMNSLKPEDTAVYYCAAASWSGRSTLSYDYDYWGQGTQVTVST ... 10.30
